Assay: Cytotoxicity determination in HepG2.2.15 cells (CCK-8)
Format: cell-based
Settings: human, 6 days of compound treatment, CCK-8, highest concentration 100 μM
Method: HBV replication inhibition by the compounds of this invention as well as cytotoxicity determination was determined in cells infected or transfected with HBV, or cells with stably integrated HBV, such as HepG2.2.15 cells (Sells et al. 1987). The method used herein is as follows. […] EC50 and CC50 values are calculated by the GraphPad Prism software and are averages where multiple measurements were made. […]
// NB: equality with 50 µM counts as no; only CC50 at 6 days strictly below is yes

Known results for compounds:
Q. State whether 50 µM exceeds CC50 at 6 days recorded for COC(=O)C1=C(C2CCN(S(=O)(=O)c3cnn(C[C@H](C)O)c3)CC2)NC(c2nccs2)=NC1c1ccc(F)cc1Cl (stereo partly drawn) [Compound 360D] .
A. yes

Q. Also CCOC(=O)C1=C([C@H]2CC[C@H](C(=O)O)CC2)NC(c2nccs2)=NC1c1cccc(F)c1Cl (single isomer, unassigned) ?
A. yes

Q. Also COCCOCCOCCS(=O)(=O)NC12CC(C3=C(C(=O)OC)C(c4ccc(F)cc4Cl)N=C(c4nccs4)N3)(C1)C2 (stereo not drawn) [Compound 440b] ?
A. no

Q. Also COC(=O)C1=C(C2CCCN(S(C)(=O)=O)CC2)NC(c2nccs2)=NC1c1ccc(F)cc1Cl (single isomer, unassigned) [Compound 383A] ?
A. yes

Further cases:
Q. State whether 50 µM exceeds CC50 at 6 days recorded for COC(=O)CCS(=O)(=O)N1CCC(C2=C(C(=O)OC)C(c3ccc(F)c(F)c3Cl)N=C(c3nccs3)N2)CC1 (stereo not drawn) [Compound 157A] .
A. no

Q. Also COC(=O)C1=C(C2CCN(S(=O)(=O)CC(=O)O)C2)NC(c2nccs2)=NC1c1ccc(F)cc1Cl (single isomer, unassigned) [Compound 214A] ?
A. no

###

experiment: Cytotoxicity determination in HepG2.2.15 cells (CCK-8); format: cell-based; conditions: human, 6 days of compound treatment, CCK-8, highest concentration 100 μM
experimental.endpoint: CC50 at 6 days
Form field: result (number plus unit)

Example entries and their recorded answers appear below.
Q. Given the molecule COC(=O)C1=C(C2CCN(C(=O)CO)CC2)NC(c2nccs2)=NC1c1ccc(F)cc1Cl (stereo not drawn) [Compound 122] , what is its reported CC50 at 6 days?
A. 5.1 µM

Q. Also COC[C@H](O)CN([C@H]1CC[C@H](C2=C(C(=O)OC)C(c3ccc(F)c(F)c3Cl)N=C(c3nccs3)N2)CC1)S(C)(=O)=O (single isomer, unassigned) [Compound 245B] ?
A. 12.3 µM

Q. Also COC(=O)C1=C(C2CCN(S(C)(=N)=O)CC2)NC(c2nccs2)=NC1c1ccc(F)cc1Cl (stereo not drawn) [Compound 401B] ?
A. 56.2 µM

Q. Also COC(=O)C1=C(C2CCCN2S(C)(=O)=O)NC(c2nccs2)=NC1c1ccc(F)cc1Cl (single isomer, unassigned) [Compound 69C] ?
A. 11.9 µM

Q. Also COC(=O)C1=C([C@H]2CC[C@H](C(=O)OC)CC2)NC(c2nccs2)=NC1c1ccc(F)c(F)c1Cl (single isomer, unassigned) [Compound 288M] ?
A. 20 µM

Field: next molecule
Q. Given the molecule CCOC(=O)C1=C(C2CCN(S(=O)(=O)[C@H]3C[C@H](C(=O)O)C3)CC2)NC(c2nccs2)=NC1c1ccc(F)c(F)c1Br (stereo partly drawn) [Compound 199A] , what is its reported CC50 at 6 days?
A. 35.8 µM
